Source of measurements: ChEMBL document CHEMBL4680238

# Tested on: HCT-116
# Assay explanation: Cytotoxicity against human HCT-116 cells assessed as reduction in cell viability after 48 hrs by MTT assay
# Assay type: functional, cell-based
# Condition: HCT-116, 48 h
Residues, ends and D or L forms follow the SMILES beside them. *: point of attachment. X2 = CC(=O)O[C@@]12CO[C@@H]1C[C@H](O)[C@@]1(C)C(=O)[C@H](O)C3=C(C)[C@@H](OC(=O)[C@H](OC(=O)OCc4ccc(N*)cc4)[C@@H](NC(=O)OC(C)(C)C(F)(F)F)c4ccccc4)C[C@@](O)([C@@H](OC(=O)c4cccc(F)c4)[C@H]21)C3(C)C; X1 = CC(=O)O[C@@]12CO[C@@H]1C[C@H](O)[C@@]1(C)C(=O)[C@H](O)C3=C(C)[C@@H](OC(=O)[C@H](OC(=O)OCc4ccc(N*)cc4)[C@@H](NC(=O)OC(C)(C)C)c4ccccc4)C[C@@](O)([C@@H](OC(=O)c4ccccc4)[C@H]21)C3(C)C
Value type: IC50
In your response, the unit should come after the numeric value.

Record excerpt, results attached:
{"Compound": "CC(=O)O[C@@]12CO[C@@H]1C[C@H](O)[C@@]1(C)C(=O)[C@H](O)C3=C(C)[C@@H](OC(=O)[C@H](O)[C@@H](NC(=O)OC(C)(C)C(F)(F)F)c4ccccc4)C[C@@](O)([C@@H](OC(=O)c4cccc(F)c4)[C@H]21)C3(C)C", "Target": "HCT-116", "IC50": "0.1 nM"}
{"Compound": "CC[C@H](C)[C@H](NC(=O)CNC(=O)[C@H](CCSC)NC(=O)[C@@H]1CCCN1C(=O)CNC(C)=O)C(=O)N[C@@H](C)C(=O)NCC(=O)N[C@@H](CCC(N)=O)C(=O)N[C@@H](CC(C)C)C(=O)Nc1ccc(COC(=O)O[C@@H](C(=O)O[C@H]2C[C@@]3(O)[C@@H](OC(=O)c4ccccc4)[C@@H]4[C@]5(OC(C)=O)CO[C@@H]5C[C@H](O)[C@@]4(C)C(=O)[C@H](O)C(=C2C)C3(C)C)[C@@H](NC(=O)OC(C)(C)C)c2ccccc2)cc1 (Ac-GPMGIAGQL-X1)", "Target": "HCT-116", "IC50": "7.2 nM"}
{"Compound": "O=c1[nH]cc(F)c(=O)[nH]1", "Target": "HCT-116", "IC50": "26000 nM"}

# evaluate next
Request: Would you kindly share the measured IC50 for CC[C@H](C)[C@H](NC(=O)CNC(=O)[C@H](CCSC)NC(=O)[C@@H]1CCCN1C(=O)CNC(C)=O)C(=O)N[C@@H](C)C(=O)NCC(=O)N[C@@H](CCC(N)=O)C(=O)N[C@@H](CC(C)C)C(=O)Nc1ccc(COC(=O)O[C@@H](C(=O)O[C@H]2C[C@@]3(O)[C@@H](OC(=O)c4cccc(F)c4)[C@@H]4[C@]5(OC(C)=O)CO[C@@H]5C[C@H](O)[C@@]4(C)C(=O)[C@H](O)C(=C2C)C3(C)C)[C@@H](NC(=O)OC(C)(C)C(F)(F)F)c2ccccc2)cc1 (Ac-GPMGIAGQL-X2) ?
Response: 20.9 nM
